# measured-target: T1, human prolactin receptor (PRLR) on cells (human, UniProt P16471 25-622)
# T1 construct: T47D, T47D#11 and MCF7 carry the endogenous receptor; also called hPRLR; HEK293/hPRLR
# T1 sequence: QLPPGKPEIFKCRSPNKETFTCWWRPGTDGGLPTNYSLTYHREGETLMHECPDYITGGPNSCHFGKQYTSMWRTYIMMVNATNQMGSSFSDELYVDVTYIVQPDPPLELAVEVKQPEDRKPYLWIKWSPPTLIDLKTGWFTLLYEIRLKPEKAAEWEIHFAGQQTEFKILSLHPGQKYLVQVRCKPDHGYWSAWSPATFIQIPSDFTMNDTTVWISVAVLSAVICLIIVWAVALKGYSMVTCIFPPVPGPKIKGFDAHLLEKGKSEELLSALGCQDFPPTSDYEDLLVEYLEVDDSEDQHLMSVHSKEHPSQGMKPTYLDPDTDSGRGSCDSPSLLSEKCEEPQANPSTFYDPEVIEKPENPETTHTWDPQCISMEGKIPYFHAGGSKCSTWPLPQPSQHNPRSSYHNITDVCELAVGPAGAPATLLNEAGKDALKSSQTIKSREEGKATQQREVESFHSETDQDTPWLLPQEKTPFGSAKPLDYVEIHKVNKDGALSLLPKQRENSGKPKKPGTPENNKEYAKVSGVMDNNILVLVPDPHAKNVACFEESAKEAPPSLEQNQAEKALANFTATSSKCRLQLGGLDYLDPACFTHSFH
# experiment-notes: FACS, T47D cells (native PRLR); further: test concentration or dose not given here
Catalogue of binders with associated FACS Cell Binding (Fold Above Background)
Supply the numeric figure in fold above background, leaving out any unit text.

Please review the entries below; each comes with its answer.
H1H6967N (antibody, human IgG1, V domains shown, also called H2M6967N) VH: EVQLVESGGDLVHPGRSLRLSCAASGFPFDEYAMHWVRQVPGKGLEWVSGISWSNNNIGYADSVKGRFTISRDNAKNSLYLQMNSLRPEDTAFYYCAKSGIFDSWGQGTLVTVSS VL: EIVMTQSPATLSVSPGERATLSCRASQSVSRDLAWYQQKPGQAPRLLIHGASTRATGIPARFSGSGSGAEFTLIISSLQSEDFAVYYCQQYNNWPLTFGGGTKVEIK    41
H1H6803P (antibody, human IgG1, V domains shown, human IgG1 Fc (H1H)) VH: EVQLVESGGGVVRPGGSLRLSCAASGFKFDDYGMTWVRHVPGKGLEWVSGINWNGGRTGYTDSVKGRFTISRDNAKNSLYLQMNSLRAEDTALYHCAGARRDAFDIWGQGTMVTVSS VL: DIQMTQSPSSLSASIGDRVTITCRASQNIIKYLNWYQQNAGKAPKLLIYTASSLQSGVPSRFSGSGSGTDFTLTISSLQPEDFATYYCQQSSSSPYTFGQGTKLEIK    39

Now turn to the next binder.
[Q] For the binder H1H6800P (antibody, human IgG1, V domains shown, human IgG1 Fc (H1H)) VH: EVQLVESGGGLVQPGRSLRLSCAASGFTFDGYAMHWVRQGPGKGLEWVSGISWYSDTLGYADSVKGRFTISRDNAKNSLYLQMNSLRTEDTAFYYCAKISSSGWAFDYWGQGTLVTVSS VL: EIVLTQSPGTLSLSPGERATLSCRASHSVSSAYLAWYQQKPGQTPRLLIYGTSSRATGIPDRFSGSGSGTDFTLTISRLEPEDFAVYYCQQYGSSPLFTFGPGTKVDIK , give its reported FACS Cell Binding (Fold Above Background).
[A] 41
